A collection of compounds and their measured IC50
assayed_target: FAAH (Homo sapiens, UniProt O00519)
Sequence (O00519 1-579): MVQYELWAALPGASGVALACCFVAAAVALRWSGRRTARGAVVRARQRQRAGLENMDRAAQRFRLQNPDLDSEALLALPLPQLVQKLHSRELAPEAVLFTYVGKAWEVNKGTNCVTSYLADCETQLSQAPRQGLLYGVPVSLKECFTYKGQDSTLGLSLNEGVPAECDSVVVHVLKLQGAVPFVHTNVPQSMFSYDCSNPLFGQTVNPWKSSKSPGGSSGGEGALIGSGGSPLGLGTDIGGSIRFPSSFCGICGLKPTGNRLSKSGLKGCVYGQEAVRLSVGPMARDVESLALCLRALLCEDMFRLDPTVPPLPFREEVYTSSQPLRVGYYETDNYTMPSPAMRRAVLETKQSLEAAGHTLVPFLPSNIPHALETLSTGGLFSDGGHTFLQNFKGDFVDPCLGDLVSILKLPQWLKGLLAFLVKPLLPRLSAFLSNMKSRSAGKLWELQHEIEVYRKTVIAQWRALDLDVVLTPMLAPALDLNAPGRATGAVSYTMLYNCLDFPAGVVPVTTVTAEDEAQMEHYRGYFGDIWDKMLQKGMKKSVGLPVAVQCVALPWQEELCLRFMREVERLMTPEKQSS
assay_method_text: Human FAAH assay (Assay Method 1), 3H-anandamide hydrolysis in cell homogenate
Counter-ions that a name gives are not always drawn.

compound | assayed_target | IC50 / nM
N[C@@H](CNc1cc(-c2ccc(C(F)(F)F)c(Cl)c2)ncn1)c1ccc(F)c(F)c1 [Example 41, trifluoroacetic acid salt] | FAAH (Homo sapiens, UniProt O00519) | 20
N[C@@H](CNc1cc(-c2ccc(SC(F)(F)F)cc2)ncn1)c1ccccc1 | FAAH (Homo sapiens, UniProt O00519) | 19
N[C@@H](CNc1cc(-c2cccc(Cl)c2)ncn1)c1ccccc1 | FAAH (Homo sapiens, UniProt O00519) | 1000
